- experiment-notes: qHTS Screen of the MIPE 4.0 Collection Against Ewings Sarcoma (RDES) (AID 1259252); note: nearly all actives have a fitted effect of over 35% in size; note: potency is the fitted concentration of half-maximal effect
- run-parameters: RD-ES Ewing sarcoma viability, CellTiter-Glo, 48 h; series mostly up to 45.8 µM
Records with an inconclusive call do not appear. Activity calls are given as the source filed them. Calls come from the whole dose curve; as a rule, active = well fitted inhibition curve with a large enough effect; inconclusive = small, poorly fitted or top-dose-only effect; inactive = no such curve, though single readings can be large or run the other way.
quantity-kind: Potency

// solved cases for Potency follow
O=c1cccc2n1CC1CNC[C@H]2C1 = inactive
C[C@@H]1CC[C@H]2[C@@H](C)C(=O)O[C@@H]3O[C@@]4(C)CC[C@H]1[C@]32OO4 = 18.7 µM (active)
C[C@]12CC[C@H]3[C@@H](CCC4=CC(=O)CC[C@@]43C)[C@H]1CC[C@H]2O = inactive
C[C@@H]1[C@H](O)[C@@H](C)C=CC=CCCC=CC=CC=CC=C[C@H](O[C@H]2O[C@@H](C)[C@H](O)[C@@H](N)[C@@H]2O)CC2O[C@](O)(C[C@@H](O)[C@H](O)CC[C@@H](O)C[C@@H](O)C[C@@H](O)CC(=O)O[C@H]1C)C[C@H](O)[C@H]2C(=O)O = inactive
C=C[C@@H]1CN2CCC1C[C@@H]2[C@@H](O)c1ccnc2ccccc12 (stereo partly drawn) = 16.6 µM (active)
CC(=Cc1csc(C)n1)[C@@H]1C[C@H]2O[C@@H]2CCC[C@H](C)[C@@H](O)[C@@H](C)C(=O)C(C)(C)[C@@H](O)CC(=O)O1 = inactive

INPUT: Complete the entry with Potency for NC1=NC(=O)N2CC12 (stereo not drawn)
OUTPUT: inactive

INPUT: Complete the entry with Potency for `CSCC[C@@H](NC(=O)[C@@H](Cc1ccccc1)NC(=O)CNC(=O)CNC(=O)[C@@H](N)Cc1ccc(O)cc1)C(=O)O`
OUTPUT: inactive
